Molecular target: T1, mouse NMUR1-CTG (mouse, UniProt O55040 1-428)
T1 sequence (looked up): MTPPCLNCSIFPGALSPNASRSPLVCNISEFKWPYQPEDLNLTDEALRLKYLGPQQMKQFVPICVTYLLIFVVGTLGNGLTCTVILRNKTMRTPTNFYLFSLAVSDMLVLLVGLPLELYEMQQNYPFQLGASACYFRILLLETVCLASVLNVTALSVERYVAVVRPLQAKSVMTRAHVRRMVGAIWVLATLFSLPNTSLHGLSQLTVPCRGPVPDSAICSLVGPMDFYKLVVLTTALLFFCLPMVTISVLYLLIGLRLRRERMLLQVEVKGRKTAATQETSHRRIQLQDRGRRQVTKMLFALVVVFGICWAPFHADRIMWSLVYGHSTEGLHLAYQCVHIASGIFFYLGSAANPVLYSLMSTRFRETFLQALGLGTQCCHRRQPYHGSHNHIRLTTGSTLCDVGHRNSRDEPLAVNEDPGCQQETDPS
Experiment: cell-based or functional assay
*: point of attachment. Succinimide(1-Et,3-yl) = CCN1C(=O)CC(*)C1=O
Endpoint name: % Activity (FLIPR) (%)
Reply numerically in %, unit not repeated.

// % Activity (FLIPR) lookup, binder = Ac-C(PEG 20 kDa)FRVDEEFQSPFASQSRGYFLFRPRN-NH2 [NMU21] , result: 90.8

// % Activity (FLIPR) lookup, binder = Ac-C(Succinimide(1-Et,3-yl))GYFLFRPRN-NH2 (SMILES CCN1C(=O)CC(SC[C@H](NC(C)=O)C(=O)NCC(=O)N[C@@H](Cc2ccc(O)cc2)C(=O)N[C@@H](Cc2ccccc2)C(=O)N[C@@H](CC(C)C)C(=O)N[C@@H](Cc2ccccc2)C(=O)N[C@@H](CCCNC(=N)N)C(=O)N2CCC[C@H]2C(=O)N[C@@H](CCCNC(=N)N)C(=O)N[C@@H](CC(N)=O)C(N)=O)C1=O) [NMU6] , result: 100
